// values below are reported pKi
- ASSAY TARGET: Adenosine receptor A2a (Homo sapiens)
- Sequence (P29274 whole entry): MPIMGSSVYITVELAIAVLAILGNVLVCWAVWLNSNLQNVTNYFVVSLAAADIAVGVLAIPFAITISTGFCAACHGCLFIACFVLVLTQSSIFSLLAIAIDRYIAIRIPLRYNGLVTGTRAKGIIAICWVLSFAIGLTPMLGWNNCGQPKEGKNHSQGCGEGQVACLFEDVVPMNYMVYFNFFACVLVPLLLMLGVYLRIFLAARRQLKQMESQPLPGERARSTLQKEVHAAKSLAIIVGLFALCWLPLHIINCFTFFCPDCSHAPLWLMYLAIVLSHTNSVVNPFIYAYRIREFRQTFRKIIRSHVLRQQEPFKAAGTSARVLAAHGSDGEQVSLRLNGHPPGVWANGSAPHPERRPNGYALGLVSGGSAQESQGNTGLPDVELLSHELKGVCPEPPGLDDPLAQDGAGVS
- EXPERIMENT SUMMARY: Displacement of [3H]ZM241385 from human recombinant adenosine A2A receptor expressed in HeLa cells by beta scintillation counter
// field semantics: pKi = negative decimal log of concentration (mol/L)

Below are worked cases with known answers.
# STRUCTURE SMILES STRING, pKi
rows = [
    ("CCCn1c(=O)c2[nH]c(-c3ccc(COC(=O)Nc4cnccn4)cc3)cc2n(CCC)c1=O", 7.45),
    ("Cn1c(=O)c2[nH]c(-c3ccc(COC(=O)Nc4ccco4)cc3)cc2n(C)c1=O", 7.74),
    ("Cn1c(=O)c2[nH]c(-c3ccc(COC(=O)Nc4ccc(F)cc4)cc3)cc2n(C)c1=O", 7.14),
    ("Cn1c(=O)c2[nH]c(-c3ccc(COC(=O)N4CCc5ccccc5C4)cc3)cc2n(C)c1=O", 7.36),
    ("Cn1c(=O)c2[nH]c(-c3ccc(COC(=O)Nc4cccs4)cc3)cc2n(C)c1=O", 7.82),
]

Prompt: Which pKi value belongs to "CCCn1c(=O)c2[nH]c(-c3ccc(COC(=O)N4CCN(c5cccc(Cl)c5)CC4)cc3)cc2n(CCC)c1=O" ?
Completion: 7.55

Prompt: Which pKi value belongs to "Cn1c(=O)c2[nH]c(-c3ccc(COC(=O)NCc4ccccc4)cc3)cc2n(C)c1=O" ?
Completion: 6.00

Prompt: Which pKi value belongs to "CCCn1c(=O)c2[nH]c(-c3ccc(COC(=O)Nc4cccs4)cc3)cc2n(CCC)c1=O" ?
Completion: 5.65

Prompt: Which pKi value belongs to "CCCn1c(=O)c2[nH]c(-c3ccc(COC(=O)Nc4cc[nH]n4)cc3)cc2n(CCC)c1=O" ?
Completion: 8.00

Prompt: Which pKi value belongs to "CCCn1c(=O)c2[nH]c(-c3ccc(COC(=O)N4CCN(c5ccc(F)cc5)CC4)cc3)cc2n(CCC)c1=O" ?
Completion: 7.30
